Listing: pIC50 of selected molecules
# subject_of_test: human MGL from HeLa cells (Homo sapiens (Human), UniProt Q99685)
# Sequence (Q99685 whole entry): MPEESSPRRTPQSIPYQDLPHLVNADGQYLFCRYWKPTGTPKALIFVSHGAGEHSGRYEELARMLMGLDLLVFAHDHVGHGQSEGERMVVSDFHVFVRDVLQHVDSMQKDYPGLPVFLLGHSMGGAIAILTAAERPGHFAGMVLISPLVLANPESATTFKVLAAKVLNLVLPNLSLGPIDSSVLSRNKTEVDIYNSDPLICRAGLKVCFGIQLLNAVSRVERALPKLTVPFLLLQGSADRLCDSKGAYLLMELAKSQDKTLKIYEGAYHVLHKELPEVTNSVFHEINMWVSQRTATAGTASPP
# experimental_details: MGL in vitro activity assay ([glycerol-1,3-3H]-oleoyl glycerol hydrolysis, activated carbon filtration)
# stated_conditions: 300 nM [Glycerol-1,3-3H]-oleoyl glycerol, one hour
pIC50 (log units): -log10 of the concentration in mol/L.

Example molecules with recorded pIC50:
[
  {
    "molecule": "C[C@]1(O)C[C@@H](C(=O)N2CC3(CC[C@H](c4cccc(OC(F)(F)F)c4)C3)C2)C1 (stereo in doubt)",
    "pIC50": 7.66
  },
  {
    "molecule": "Cc1cc(OC2CCC3(CC2)CN(C(=O)[C@H]2C[C@@](C)(O)C2)C3)nc(C)c1C(F)(F)F",
    "pIC50": 8.57
  },
  {
    "molecule": "C[C@]1(O)C[C@@H](C(=O)N2CC3(CC[C@@H](c4ccc(OC(F)(F)F)cc4)C3)C2)C1 (stereo in doubt)",
    "pIC50": 8.00
  },
  {
    "molecule": "Cc1cccc(CC2CC3(C2)CN(C(=O)[C@H]2C[C@@](C)(O)C2)C3)c1C",
    "pIC50": 7.96
  },
  {
    "molecule": "COc1cccc(CC2CC3(C2)CN(C(=O)[C@H]2C[C@@](C)(O)C2)C3)n1",
    "pIC50": 6.80
  }
]

In: Need pIC50, item C[C@]1(O)C[C@@H](C(=O)N2CC3(CC(Cc4ccc5ccnn5c4)C3)C2)C1
Out: 6.91

In: Need pIC50, item C[C@]1(O)C[C@@H](C(=O)N2CC3(CC(Cn4ccc5ccc(C(F)(F)F)nc54)C3)C2)C1
Out: 7.70

In: Need pIC50, item C[C@]1(O)C[C@@H](C(=O)N2CC3(CCC(Oc4ccc(OC(F)(F)F)cc4)CC3)C2)C1
Out: 8.49

In: Need pIC50, item Cc1cc(C(F)(F)F)c(C)nc1OC1CCC2(CC1)CN(C(=O)[C@H]1C[C@@](C)(O)C1)C2
Out: 10.00

In: Need pIC50, item C[C@]1(O)C[C@@H](C(=O)N2CC3(CC(Cc4ccccn4)C3)C2)C1
Out: 5.86

In: Need pIC50, item C[C@]1(O)C[C@@H](C(=O)N2CC3(CC(Cc4ccc(OC(F)F)cc4)C3)C2)C1
Out: 8.29

In: Need pIC50, item Cn1nc(CC2CC3(C2)CN(C(=O)[C@H]2C[C@@](C)(O)C2)C3)cc1C(F)(F)F
Out: 6.94

In: Need pIC50, item CN(C)c1cc(C2CCC3(CC2)CN(C(=O)[C@H]2C[C@@](C)(O)C2)C3)ccc1C(F)(F)F
Out: 7.77

In: Need pIC50, item Cn1ccc2cc(C3CC4(C3)CN(C(=O)[C@H]3C[C@@](C)(O)C3)C4)cnc21
Out: 5.62

In: Need pIC50, item COc1cc(C2CCC3(CC2)CN(C(=O)[C@H]2C[C@@](C)(O)C2)C3)ccc1F
Out: 7.00

In: Need pIC50, item Cc1ccc(CC2CC3(CCN(C(=O)[C@H]4C[C@@](C)(O)C4)CC3)C2)cc1
Out: 7.55

In: Need pIC50, item Cc1cc(CC2CCC3(C2)CN(C(=O)[C@H]2C[C@@](C)(O)C2)C3)ccc1C(F)(F)F (mixture of isomers)
Out: 8.41

---

Listing: IC50 of selected molecules
# subject_of_test: human MGL from HeLa cells (Homo sapiens (Human), UniProt Q99685)
# experimental_details: MGL in vitro activity assay ([glycerol-1,3-3H]-oleoyl glycerol hydrolysis, activated carbon filtration)
# stated_conditions: 300 nM [Glycerol-1,3-3H]-oleoyl glycerol, one hour

[
  {
    "molecule": "Cc1cc(OC(F)(F)F)cc(C2CCC3(C2)CN(C(=O)[C@H]2C[C@@](C)(O)C2)C3)c1 (mixture of isomers) [Example 93]",
    "IC50": "20 nM"
  },
  {
    "molecule": "Cc1cc([C@@H]2CCC3(C2)CN(C(=O)[C@H]2C[C@@](C)(O)C2)C3)ccc1OC(F)F (stereo in doubt) [Example 73]",
    "IC50": "8.1 nM"
  },
  {
    "molecule": "COc1cccc(C2CCC3(CC2)CN(C(=O)[C@H]2C[C@@](C)(O)C2)C3)c1C [Example 106]",
    "IC50": "30 nM"
  }
]

In: Identify the measured IC50 of Cc1cc(C(F)(F)F)cnc1OC1CCC2(CC1)CN(C(=O)[C@H]1C[C@@](C)(O)C1)C2 [Example 446] for human MGL from HeLa cells (Homo sapiens (Human), UniProt Q99685).
Out: 0.76 nM

In: Identify the measured IC50 of Cn1ccc2ccc(C3CC4(C3)CN(C(=O)[C@H]3C[C@@](C)(O)C3)C4)nc21 [Example 269] for human MGL from HeLa cells (Homo sapiens (Human), UniProt Q99685).
Out: 507 nM

In: Identify the measured IC50 of Cc1cc2ccn(C)c2nc1OC1CCC2(CC1)CN(C(=O)[C@H]1C[C@@](C)(O)C1)C2 [Example 473] for human MGL from HeLa cells (Homo sapiens (Human), UniProt Q99685).
Out: 1.2 nM

In: Identify the measured IC50 of C[C@]1(O)C[C@@H](C(=O)N2CC3(CCC(Oc4ccc(F)c(C5CC5)c4)C3)C2)C1 (mixture of isomers) [Example 335] for human MGL from HeLa cells (Homo sapiens (Human), UniProt Q99685).
Out: 116 nM

---

# subject_of_test: human MGL from HeLa cells (Homo sapiens (Human))
# experimental_details: MGL in vitro activity assay ([glycerol-1,3-3H]-oleoyl glycerol hydrolysis, activated carbon filtration)
# stated_conditions: 300 nM [Glycerol-1,3-3H]-oleoyl glycerol, one hour
outcome_measure: log10(IC50) (log10 of the value in nM)
Please interpret these as log10 of IC50 where IC50 is in nM.

Example compounds with recorded log10(IC50):
[
  {
    "compound": "Cc1ccc(C2CCC3(CC2)CN(C(=O)[C@H]2C[C@@](C)(O)C2)C3)nc1C(C)C [Example 373]",
    "log10(IC50)": 0.38
  },
  {
    "compound": "C[C@]1(O)C[C@@H](C(=O)N2CC3(CCC(Oc4cccc(C5CC5)c4F)C3)C2)C1 (mixture of isomers) [Example 334]",
    "log10(IC50)": 2.10
  },
  {
    "compound": "C[C@]1(O)C[C@@H](C(=O)N2CC3(CCC(Oc4ncc(C(F)(F)F)cn4)CC3)C2)C1 [Example 467]",
    "log10(IC50)": 2.93
  },
  {
    "compound": "C[C@]1(O)C[C@@H](C(=O)N2CC3(CC(c4ccc(C5CC5)cc4)C3)C2)C1 [Example 5]",
    "log10(IC50)": 2.47
  },
  {
    "compound": "Cc1nc(OC2CC3(CCN(C(=O)[C@H]4C[C@@](C)(O)C4)CC3)C2)ccc1C(F)(F)F [Example 482]",
    "log10(IC50)": 1.79
  },
  {
    "compound": "COc1ccc(C2CCC3(CC2)CN(C(=O)[C@H]2C[C@@](C)(O)C2)C3)cc1C1CC1 [Example 142]",
    "log10(IC50)": 2.08
  },
  {
    "compound": "C[C@]1(O)C[C@@H](C(=O)N2CC3(CC[C@H](c4cccc(C5CC5)c4)C3)C2)C1 (stereo in doubt) [Example 60]",
    "log10(IC50)": 1.40
  },
  {
    "compound": "Cn1cc(F)c2ccc(OC3CCC4(CC3)CN(C(=O)[C@H]3C[C@@](C)(O)C3)C4)nc21 [Example 474]",
    "log10(IC50)": 0.74
  }
]

In: Need log10(IC50), item C[C@]1(O)C[C@@H](C(=O)N2CC3(CCC(c4cccn5nccc45)C3)C2)C1 (mixture of isomers) [Example 324]
Out: 2.92

In: Need log10(IC50), item COc1cc(CC2CC3(C2)CN(C(=O)[C@H]2C[C@@](C)(O)C2)C3)ccc1C(F)(F)F [Example 276]
Out: 0.00

---

Listing: pIC50 of selected compounds
# subject_of_test: human MGL from HeLa cells (Homo sapiens (Human), UniProt Q99685)
# experimental_details: MGL in vitro activity assay ([glycerol-1,3-3H]-oleoyl glycerol hydrolysis, activated carbon filtration)
# Type: biochemical
# stated_conditions: 300 nM [Glycerol-1,3-3H]-oleoyl glycerol, one hour
# Source text: The assay used to measure the in vitro activity of MGL is adapted from the assay used for another serine hydrolase (FAAH) described in Wilson et al., 2003 (A high-throughput-compatible assay for determining the activity of fatty acid amide hydrolase. Wilson S J, Lovenberg T W, Barbier A J. Anal Biochem. 2003 Jul. 15; 318(2):270-5). […]
pIC50 (log units): -log10 of the concentration in mol/L.

[
  {
    "compound": "C[C@]1(O)C[C@@H](C(=O)N2CC3(CCC(c4ccc(F)c(C5CC5)c4)C3)C2)C1 (mixture of isomers)",
    "subject_of_test": "human MGL from HeLa cells (Homo sapiens (Human), UniProt Q99685)",
    "test_value": 7.85
  },
  {
    "compound": "C[C@]1(O)C[C@@H](C(=O)N2CC3(CC[C@@H](Cc4ccc(OC(F)(F)F)cc4)C3)C2)C1 (racemic)",
    "subject_of_test": "human MGL from HeLa cells (Homo sapiens (Human), UniProt Q99685)",
    "test_value": 8.24
  },
  {
    "compound": "CC(C)c1ccc(OC2CCC3(CC2)CN(C(=O)[C@H]2C[C@@](C)(O)C2)C3)cc1",
    "subject_of_test": "human MGL from HeLa cells (Homo sapiens (Human), UniProt Q99685)",
    "test_value": 8.20
  },
  {
    "compound": "Cc1cc2cnn(C)c2cc1CC1CC2(C1)CN(C(=O)[C@H]1C[C@@](C)(O)C1)C2",
    "subject_of_test": "human MGL from HeLa cells (Homo sapiens (Human), UniProt Q99685)",
    "test_value": 7.44
  },
  {
    "compound": "Cc1c(C2CCC3(CC2)CN(C(=O)[C@H]2C[C@@](C)(O)C2)C3)ccnc1OC(C)C",
    "subject_of_test": "human MGL from HeLa cells (Homo sapiens (Human), UniProt Q99685)",
    "test_value": 7.77
  }
]

In: Need pIC50, item Cc1cc(CC2CC3(C2)CN(C(=O)[C@H]2C[C@@](C)(O)C2)C3)ccc1C1CC1
Out: 9.22

In: Need pIC50, item CC(C)c1ccc(C2CCC3(C2)CN(C(=O)[C@H]2C[C@@](C)(O)C2)C3)cc1 (mixture of isomers)
Out: 7.82

In: Need pIC50, item C[C@]1(O)C[C@@H](C(=O)N2CC3(CC[C@@H](c4cccc(C(F)(F)F)c4)C3)C2)C1 (stereo in doubt)
Out: 7.47

In: Need pIC50, item COc1cc(F)cc(C2CCC3(CC2)CN(C(=O)[C@H]2C[C@@](C)(O)C2)C3)c1
Out: 7.59

In: Need pIC50, item C[C@]1(O)C[C@@H](C(=O)N2CC3(CCC(c4ncn5c4CCCC5)C3)C2)C1 (mixture of isomers)
Out: 5.62

In: Need pIC50, item Cc1ccc(OC2CC3(C2)CN(C(=O)[C@H]2C[C@@](C)(O)C2)C3)cc1C(F)(F)F
Out: 6.94

In: Need pIC50, item COc1c(C)cccc1C1CCC2(C1)CN(C(=O)[C@H]1C[C@@](C)(O)C1)C2 (mixture of isomers)
Out: 6.54

In: Need pIC50, item Cc1nc(OC2CCC3(CC2)CN(C(=O)[C@H]2C[C@@](C)(O)C2)C3)ccc1C(F)(F)F
Out: 8.62

In: Need pIC50, item C[C@]1(O)C[C@@H](C(=O)N2CC3(CCC(c4cc5n(n4)CCCC5)C3)C2)C1 (mixture of isomers)
Out: 5.99

In: Need pIC50, item Cc1ccc(C(F)(F)F)nc1OC1CCC2(CC1)CN(C(=O)[C@H]1C[C@@](C)(O)C1)C2
Out: 8.07
